Test system: Ipomoea hederacea (IPOHE)
TEST_DETAILS: Post-emergence herbicidal glasshouse test
Type: in vivo
TEST_PARAMETERS: 250 g/ha, evaluated after 13 days, five-point scale
PROPERTY_LABEL: percentage damage caused to the plant, IPOHE

>>> result("Cc1ccc(Oc2ncc(Br)cn2)c2cnc(C(F)F)nc12 [Compound 1.023]")
"1 (1=0-20%)"
>>> result("FC(F)(F)c1ccc2c(Oc3ncc(Cl)cn3)ccc(Br)c2n1 [Compound 1.032]")
"1 (1=0-20%)"
>>> result("Cc1cnc(Oc2ccc(C)c3nc(C(F)(F)Cl)ncc23)nc1 [Compound 1.036]")
"1 (1=0-20%)"
>>> result("Fc1cnc(Oc2cccc3nc(C(F)(F)F)ncc23)nc1 [Compound 1.070]")
"4 (4=61-80%)"
>>> result("Cc1nc(C(F)(F)Cl)nc2cccc(Oc3ncc(Cl)cn3)c12 [Compound 1.069]")
"2 (2=21-40%)"
>>> result("Cc1cnc(Oc2cccc3nc(C(F)(F)F)ncc23)nc1 [Compound 1.004]")
"4 (4=61-80%)"
>>> result("COc1ncc2c(Oc3ncc(Cl)cn3)cccc2n1 [Compound 1.016]")
"2 (2=21-40%)"
>>> result("Cc1nc(C(F)(F)F)nc2c(C#N)ccc(Oc3ncc(Cl)cn3)c12 [Compound 1.064]")
"1 (1=0-20%)"
>>> result("FC(F)(F)c1ccc2c(Oc3ncc(Br)cn3)ccc(Br)c2n1 [Compound 1.034]")
"1 (1=0-20%)"
>>> result("Cc1ccc(Oc2ncc(F)cn2)c2cnc(C(F)(F)Cl)nc12 [Compound 1.049]")
"2 (2=21-40%)"
>>> result("Cc1cnc(Oc2ccc(Cl)c3nc(C(F)(F)Cl)ncc23)nc1 [Compound 1.037]")
"1 (1=0-20%)"
>>> result("N#Cc1ccc(Oc2ncc(Cl)cn2)c2cnc(C(F)(F)F)nc12 [Compound 1.065]")
"2 (2=21-40%)"
>>> result("Cc1nc(C(F)(F)F)nc2c(Br)ccc(Oc3ncc(Cl)cn3)c12 [Compound 1.072]")
"1 (1=0-20%)"
>>> result("Cc1ccc(Oc2ncc(F)cn2)c2cnc(C(F)F)nc12 [Compound 1.027]")
"2 (2=21-40%)"
>>> result("Cc1nc(C(F)F)nc2cccc(Oc3ncc(F)cn3)c12 [Compound 1.052]")
"2 (2=21-40%)"
>>> result("FC(F)(F)c1ncc2c(Oc3ncc(Cl)cn3)ccc(Br)c2n1 [Compound 1.071]")
"2 (2=21-40%)"
>>> result("FC(F)(F)c1ncc2c(Oc3ncc(Br)cn3)cccc2n1 [Compound 1.005]")
"4 (4=61-80%)"
>>> result("Cc1ccc(Oc2ncc(Cl)cn2)c2cnc(C(F)(F)F)nc12 [Compound 1.068]")
"2 (2=21-40%)"
>>> result("Cc1ccc(Oc2ncc(F)cn2)c2ccc(C(F)(F)F)nc12 [Compound 1.029]")
"2 (2=21-40%)"
>>> result("Cc1ccc(Oc2ncc(Br)cn2)c2ccc(C(F)(F)F)nc12 [Compound 1.026]")
"1 (1=0-20%)"
>>> result("Fc1cnc(Oc2cccc3nc(C(F)(F)Cl)ncc23)nc1 [Compound 1.061]")
"4 (4=61-80%)"
>>> result("FC(F)c1ncc2c(Oc3ncc(Cl)cn3)cccc2n1 [Compound 1.019]")
"4 (4=61-80%)"
>>> result("FC(F)Oc1cnc(Oc2cccc3nc(C(F)(F)F)ncc23)nc1 [Compound 1.009]")
"1 (1=0-20%)"
>>> result("FC(F)(Cl)c1ncc2c(Oc3ncc(Cl)cn3)ccc(Cl)c2n1 [Compound 1.044]")
"2 (2=21-40%)"
>>> result("Cc1nc(C(F)F)nc2cccc(Oc3ncc(Cl)cn3)c12 [Compound 1.067]")
"3 (3=41-60%)"
>>> result("FC(F)(Cl)c1ncc2c(Oc3ncc(Br)cn3)cccc2n1 [Compound 1.055]")
"2 (2=21-40%)"
>>> result("Cc1nc(C(F)(F)F)nc2cccc(Oc3ncc(Cl)cn3)c12 [Compound 1.001]")
"2 (2=21-40%)"
>>> result("CCOc1ncc2c(Oc3ncc(Cl)cn3)cccc2n1 [Compound 1.063]")
"5 (5=81-100%)"
>>> result("FC(F)(F)c1ncc2c(Oc3ncc(C4CC4)cn3)cccc2n1 [Compound 1.012]")
"1 (1=0-20%)"
>>> result("N#Cc1cc(Cl)cnc1Oc1cccc2nc(C(F)(F)F)ncc12 [Compound 1.007]")
"2 (2=21-40%)"
>>> result("Cc1cnc(Oc2cccc3nc(C(F)(F)F)ccc23)nc1 [Compound 1.040]")
"5 (5=81-100%)"
>>> result("Cc1ccc(Oc2ncc(Cl)cn2)c2ccc(C(F)(F)F)nc12 [Compound 1.035]")
"2 (2=21-40%)"
>>> result("Cc1cc(C(F)(F)F)nc2cccc(Oc3ncc(Cl)cc3F)c12 [Compound 1.066]")
"1 (1=0-20%)"
